# Fold increase h-GABA-A α5β3γ2 oocyte values compiled below
Molecular target: h-GABA-A α5β3γ2 (Homo sapiens, UniProt P18507+P31644)
Sequence (P31644 32-462): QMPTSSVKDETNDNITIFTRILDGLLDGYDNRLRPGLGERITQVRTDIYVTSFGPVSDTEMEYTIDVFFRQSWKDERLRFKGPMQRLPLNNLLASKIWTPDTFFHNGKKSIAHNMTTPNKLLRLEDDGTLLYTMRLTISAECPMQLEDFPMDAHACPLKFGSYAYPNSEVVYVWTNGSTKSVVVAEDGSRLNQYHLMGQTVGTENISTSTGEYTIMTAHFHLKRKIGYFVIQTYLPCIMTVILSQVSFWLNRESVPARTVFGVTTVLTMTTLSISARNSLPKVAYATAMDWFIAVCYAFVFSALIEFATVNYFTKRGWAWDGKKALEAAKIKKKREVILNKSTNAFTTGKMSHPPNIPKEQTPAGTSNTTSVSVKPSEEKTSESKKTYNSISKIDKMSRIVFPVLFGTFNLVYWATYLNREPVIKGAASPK
Sequence (P28472 26-473 partner): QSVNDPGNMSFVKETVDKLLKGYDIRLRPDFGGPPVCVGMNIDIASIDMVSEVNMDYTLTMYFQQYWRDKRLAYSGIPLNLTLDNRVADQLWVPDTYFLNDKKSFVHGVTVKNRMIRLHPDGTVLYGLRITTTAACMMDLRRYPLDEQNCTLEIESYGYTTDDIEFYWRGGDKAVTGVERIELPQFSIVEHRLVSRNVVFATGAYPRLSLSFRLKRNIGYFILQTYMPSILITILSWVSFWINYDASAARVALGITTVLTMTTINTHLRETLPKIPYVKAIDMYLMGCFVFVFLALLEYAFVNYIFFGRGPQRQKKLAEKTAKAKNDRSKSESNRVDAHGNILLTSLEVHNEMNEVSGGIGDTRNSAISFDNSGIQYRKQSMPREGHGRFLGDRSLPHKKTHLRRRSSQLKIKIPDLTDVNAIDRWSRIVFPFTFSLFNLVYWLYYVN
Sequence (P18507 40-475): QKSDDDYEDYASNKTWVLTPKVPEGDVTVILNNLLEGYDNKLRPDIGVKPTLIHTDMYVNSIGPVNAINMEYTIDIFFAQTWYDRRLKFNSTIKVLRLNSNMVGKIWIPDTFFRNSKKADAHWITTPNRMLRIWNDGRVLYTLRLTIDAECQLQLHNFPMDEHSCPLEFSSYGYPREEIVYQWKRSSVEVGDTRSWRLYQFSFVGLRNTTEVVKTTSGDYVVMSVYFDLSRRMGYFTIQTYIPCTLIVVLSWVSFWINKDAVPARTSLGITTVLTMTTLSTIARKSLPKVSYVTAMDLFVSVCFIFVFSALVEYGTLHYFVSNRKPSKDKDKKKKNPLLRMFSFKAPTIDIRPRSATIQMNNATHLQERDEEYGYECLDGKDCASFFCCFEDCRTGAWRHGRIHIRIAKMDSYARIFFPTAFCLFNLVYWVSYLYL
Assay: Two-electrode voltage clamp electrophysiology in Xenopus laevis oocytes expressing GABAA receptors, modulation of GABA EC20 current
Assay type: cell-based
Parameters: host or cells: Xenopus laevis oocytes micro-injected with RNA transcripts of the subunits
Details: test compound at approx. 30 fold its Ki, GABA at EC20; Table 1
property name: Fold increase h-GABA-A α5β3γ2 oocyte

• COc1ncc(-c2cnn(Cc3c(-c4ccc(C)nc4)noc3C)c(=O)c2)cc1F = 2.37
• Cc1ccc(-c2noc(C)c2Cn2ncc(N3CC(Oc4ccnc(Cl)c4)C3)cc2=O)nn1 = 2.36
• COc1ncccc1N1CCN(c2cnn(Cc3c(-c4ccc(C)nc4)noc3C)c(=O)c2)CC1 = 2.46
• Cc1ccc(-c2nocc2Cn2ncc(N3C[C@@H](C)O[C@@H](C)C3)cc2=O)cn1 = 3.88
• COc1cc(-c2cnn(Cc3c(-c4ccc(C)nc4)noc3C)c(=O)c2)ccn1 = 1.7
• Cc1ccc(-c2noc(C)c2Cn2ncc(-c3ccc(OC(F)(F)F)cc3)cc2=O)cn1 = 1.81
• Cc1ccc(-c2noc(CF)c2Cn2ncc(N3CC4(CCCCO4)C3)cc2=O)nn1 = 1.7
• Cc1onc(-c2ccc(Cl)nc2)c1Cn1ncc(N2CC(OC3CC3)C2)cc1=O = 2.24
• Cc1ccc(-c2noc(CF)c2Cn2ncc(N3CC4(CCC(F)CO4)C3)cc2=O)nn1 (single isomer, unassigned) = 2.64
• Cc1ccc(-c2nocc2Cn2ncc(N3CCO[C@H](C)C3)cc2=O)cn1 = 2.67
• Cc1ccc(-c2noc(C)c2Cn2ncc(N3CCN(C(=O)C4(C)CC4)CC3)cc2=O)cn1 = 3.22
• Cc1ccc(-c2noc(C)c2Cn2ncc(N3CCC4(CCCCO4)CC3)cc2=O)nn1 = 2.49
• Cc1ccc(-c2noc(C)c2Cn2ncc(N3CC4(CC(F)CCO4)C3)cc2=O)cn1 (single isomer, unassigned) [Example 274] = 2.1
• Cc1cc(-c2noc(C)c2Cn2ncc(N3CC(OCC4CC4)C3)cc2=O)no1 = 2.07
• COc1ccccc1C1CCN(c2cnn(Cc3c(-c4ccc(C)nc4)noc3C)c(=O)c2)CC1 = 1.76
• Cc1onc(-c2ncc(Cl)cc2F)c1Cn1ncc(N2CCN(C(=O)C3(C)CC3)CC2)cc1=O = 2.52
• Cc1onc(-c2ccc(Cl)nc2)c1Cn1ncc(N2CC3(CCC(F)CO3)C2)cc1=O (single isomer, unassigned) [Example 298] = 2.16
• Cc1onc(-c2ccc(Cl)nc2)c1Cn1ncc(-c2cnn(C)c2)cc1=O = 2.19
• Cc1ccc(-c2noc(C)c2Cn2ncc(-c3ccc(OC(C)C)nc3)cc2=O)cn1 = 2.46
• COc1cc(-c2cnn(Cc3c(-c4ccc(Cl)nc4)noc3C)c(=O)c2)ccn1 = 1.74
